Target: UniProt P51582
Test: Agonist activity at human recombinant P2Y4 receptor expressed in human 1321N1 cells assessed as [3H]inositol phosphate production at 10 uM after 30 mins by scintillation proximity assay
Assay type: functional, cell-based
Calls of active or inactive are those of the source. The rule behind the calls is not given here.

{"structure-smiles": "O=c1ccn([C@@H]2O[C@H](COP(=O)(O)OP(=O)(O)C(Cl)(Cl)P(=O)(O)OP(=O)(O)O[C@H]3O[C@H](CO)[C@@H](O)[C@H](O)[C@H]3O)[C@@H](O)[C@H]2O)c(=O)[nH]1", "Activity": "inactive"}
{"structure-smiles": "O=c1ccn([C@@H]2O[C@H](COP(=O)(O)OP(=O)(O)OP(=O)(O)OP(=O)(O)Oc3ccc([N+](=O)[O-])cc3)[C@@H](O)[C@H]2O)c(=O)[nH]1", "Activity": "< 50%"}
{"structure-smiles": "O=c1ccn([C@@H]2O[C@H](COP(=O)(O)OP(=O)(O)OP(=O)(O)OP(=O)(O)Oc3ccccc3)[C@@H](O)[C@H]2O)c(=O)[nH]1", "Activity": "inactive"}

====

Target: P2Y purinoceptor 4 (Homo sapiens, UniProt P51582)
Sequence (P51582 whole entry): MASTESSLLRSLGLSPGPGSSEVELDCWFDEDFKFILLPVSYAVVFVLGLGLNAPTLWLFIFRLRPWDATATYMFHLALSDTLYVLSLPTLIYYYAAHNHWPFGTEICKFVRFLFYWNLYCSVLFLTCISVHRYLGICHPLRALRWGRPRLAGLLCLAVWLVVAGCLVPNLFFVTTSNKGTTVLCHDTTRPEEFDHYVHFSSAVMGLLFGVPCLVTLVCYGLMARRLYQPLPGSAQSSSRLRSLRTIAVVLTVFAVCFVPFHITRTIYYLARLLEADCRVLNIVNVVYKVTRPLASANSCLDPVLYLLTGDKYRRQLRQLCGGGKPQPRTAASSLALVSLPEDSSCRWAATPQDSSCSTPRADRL
Assay: Agonist activity at human recombinant P2Y4 receptor expressed in human 1321N1 cells assessed as [3H]inositol phosphate production at 10 uM after 30 mins by scintillation proximity assay
Assay type: functional, cell-based
Active and inactive are the calls of the source. The rule behind the calls is not given here.
quantity-measured: Activity

{"structure-smiles": "COc1cccc(OP(=O)(O)OP(=O)(O)OP(=O)(O)OP(=O)(O)OC[C@H]2O[C@@H](n3ccc(=O)[nH]c3=O)[C@H](O)[C@@H]2O)c1", "quantity-measured": "Activity", "assay-result": "inactive"}
{"structure-smiles": "O=c1ccn([C@@H]2O[C@H](COP(=O)(O)OP(=O)(O)C(Cl)(Cl)P(=O)(O)O)[C@@H](O)[C@H]2O)c(=S)[nH]1", "quantity-measured": "Activity", "assay-result": "inactive"}
{"structure-smiles": "O=c1ccn([C@@H]2O[C@H](COP(=O)(O)OP(=O)(O)C(Cl)(Cl)P(=O)(O)O)[C@@H](O)[C@H]2O)c(=O)[nH]1", "quantity-measured": "Activity", "assay-result": "inactive"}
{"structure-smiles": "O=c1ccn([C@@H]2O[C@H](COP(=O)(O)OP(=O)(O)OP(=O)(O)OP(=O)(O)O[C@H]3O[C@H](CO)[C@@H](O)[C@H](O)[C@H]3F)[C@@H](O)[C@H]2O)c(=O)[nH]1", "quantity-measured": "Activity", "assay-result": "< 50%"}
{"structure-smiles": "COc1ccc(OP(=O)(O)OP(=O)(O)OP(=O)(O)OP(=O)(O)OC[C@H]2O[C@@H](n3ccc(=O)[nH]c3=O)[C@H](O)[C@@H]2O)cc1", "quantity-measured": "Activity", "assay-result": "< 50%"}
{"structure-smiles": "O=c1ccn([C@@H]2O[C@H](COP(=O)(O)OP(=O)(O)OP(=O)(O)OP(=O)(O)Oc3cccc(Cl)c3)[C@@H](O)[C@H]2O)c(=O)[nH]1", "quantity-measured": "Activity", "assay-result": "inactive"}

====

Target: P2Y purinoceptor 6 (Homo sapiens, UniProt Q15077)
Sequence (Q15077 whole entry): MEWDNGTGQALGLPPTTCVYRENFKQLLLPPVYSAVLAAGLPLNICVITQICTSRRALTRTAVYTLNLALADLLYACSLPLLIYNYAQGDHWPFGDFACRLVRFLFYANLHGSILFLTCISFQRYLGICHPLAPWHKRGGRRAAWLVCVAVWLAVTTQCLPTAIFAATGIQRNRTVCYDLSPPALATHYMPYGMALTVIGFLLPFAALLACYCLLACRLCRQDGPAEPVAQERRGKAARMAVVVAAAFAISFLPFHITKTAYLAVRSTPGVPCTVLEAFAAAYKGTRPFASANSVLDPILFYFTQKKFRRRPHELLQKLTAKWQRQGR
Experiment: Agonist activity at human recombinant P2Y6 receptor expressed in human 1321N1 cells assessed as [3H]inositol phosphate production at 10 uM after 30 mins by scintillation proximity assay
Type: functional, cell-based
Calls of active or inactive are those of the source. The rule behind the calls is not given here.

{"structure-smiles": "O=c1ccn([C@@H]2O[C@H](COP(=O)(O)OP(=O)(O)OP(=O)(O)OP(=O)(O)Oc3ccccc3)[C@@H](O)[C@H]2O)c(=O)[nH]1", "target-system": "P2Y purinoceptor 6 (Homo sapiens, UniProt Q15077)", "Activity": "inactive"}
{"structure-smiles": "O=c1ccn([C@@H]2O[C@H](COP(=O)(O)OP(=O)(O)C(Cl)(Cl)P(=O)(O)OP(=O)(O)O[C@H]3O[C@H](CO)[C@@H](O)[C@H](O)[C@H]3O)[C@@H](O)[C@H]2O)c(=O)[nH]1", "target-system": "P2Y purinoceptor 6 (Homo sapiens, UniProt Q15077)", "Activity": "inactive"}
{"structure-smiles": "O=c1ccn([C@@H]2O[C@H](COP(=O)(O)OP(=O)(O)C(Cl)(Cl)P(=O)(O)O)[C@@H](O)[C@H]2O)c(=S)[nH]1", "target-system": "P2Y purinoceptor 6 (Homo sapiens, UniProt Q15077)", "Activity": "inactive"}
{"structure-smiles": "O=c1ccn([C@@H]2O[C@H](COP(=O)(O)OP(=O)(O)OP(=O)(O)OP(=O)(O)Oc3ccc([N+](=O)[O-])cc3)[C@@H](O)[C@H]2O)c(=O)[nH]1", "target-system": "P2Y purinoceptor 6 (Homo sapiens, UniProt Q15077)", "Activity": "< 50%"}

====

The reader will find reported pEC50 values listed item by item below.
Target: P2Y purinoceptor 4 (Homo sapiens, UniProt P51582)
Experiment: Agonist activity at human recombinant P2Y4 receptor expressed in human 1321N1 cells assessed as [3H]inositol phosphate production after 30 mins by scintillation proximity assay
Assay type: functional, cell-based
pEC50: −log10 of the molar value.

{"compound": "O=c1ccn([C@@H]2O[C@H](COP(=O)(O)OP(=O)(O)OP(=O)(O)OP(=O)(O)O[C@H]3O[C@H](CO)[C@@H](O)[C@@H](O)[C@H]3O)[C@@H](O)[C@H]2O)c(=O)[nH]1", "pEC50": 6.74}
{"compound": "O=c1ccn([C@@H]2O[C@H](COP(=O)(O)OP(=O)(O)OP(=O)(O)O)[C@@H](O)[C@H]2O)c(=O)[nH]1 [URIDINE TRIPHOSPHATE]", "pEC50": 7.10}
{"compound": "O=c1ccn([C@@H]2O[C@H](COP(=O)(O)OP(=O)(O)OP(=O)(O)OP(=O)(O)O[C@H]3O[C@H](CO)[C@@H](O)[C@H](F)[C@H]3O)[C@@H](O)[C@H]2O)c(=O)[nH]1", "pEC50": 7.21}
{"compound": "O=c1ccn([C@@H]2O[C@H](COP(=O)(O)OP(=O)(O)OP(=O)(O)OP(=O)(O)O[C@H]3O[C@H](CO)[C@@H](O)[C@H](O)[C@@H]3O)[C@@H](O)[C@H]2O)c(=O)[nH]1", "pEC50": 5.35}
{"compound": "O=c1ccn([C@@H]2O[C@H](COP(=O)(O)OP(=O)(O)OP(=O)(O)OP(=O)(O)O)[C@@H](O)[C@H]2O)c(=O)[nH]1", "pEC50": 5.14}
{"compound": "O=c1ccn([C@@H]2O[C@H](COP(=O)(O)OP(=O)(O)OP(=O)(O)OP(=O)(O)Oc3cccc([N+](=O)[O-])c3)[C@@H](O)[C@H]2O)c(=O)[nH]1", "pEC50": 5.60}
{"compound": "O=c1ccn([C@@H]2O[C@H](COP(=O)(O)OP(=O)(O)OP(=O)(O)OP(=O)(O)O[C@H]3O[C@H](CO)[C@@H](F)[C@H](O)[C@H]3O)[C@@H](O)[C@H]2O)c(=O)[nH]1", "pEC50": 6.66}
{"compound": "O=C(O)[C@H]1O[C@H](OP(=O)(O)OP(=O)(O)OP(=O)(O)OP(=O)(O)OC[C@H]2O[C@@H](n3ccc(=O)[nH]c3=O)[C@H](O)[C@@H]2O)[C@H](O)[C@@H](O)[C@@H]1O", "pEC50": 6.64}
{"compound": "O=c1[nH]/c(=N\\OCc2ccccc2)ccn1[C@@H]1O[C@H](COP(=O)(O)OP(=O)(O)OP(=O)(O)OP(=O)(O)O[C@H]2O[C@H](CO)[C@@H](O)[C@H](F)[C@H]2O)[C@@H](O)[C@H]1O", "pEC50": 6.17}
{"compound": "CONc1ccn([C@@H]2O[C@H](COP(=O)(O)OP(=O)(O)OP(=O)(O)OP(=O)(O)O[C@H]3O[C@H](CO)[C@@H](O)[C@H](F)[C@H]3O)[C@@H](O)[C@H]2O)c(=O)n1", "pEC50": 6.51}
{"compound": "O=c1ccn([C@@H]2O[C@H](COP(=O)(O)OP(=O)(O)OP(=O)(O)OP(=O)(O)O[C@H]3OC[C@@H](O)[C@H](O)[C@H]3O)[C@@H](O)[C@H]2O)c(=O)[nH]1", "pEC50": 6.21}

====

Readings of pEC50 for the listed compounds
Target: P2Y purinoceptor 6 (Homo sapiens)
Assay: Agonist activity at human recombinant P2Y6 receptor expressed in human 1321N1 cells assessed as [3H]inositol phosphate production after 30 mins by scintillation proximity assay
pEC50: −log10 of the molar value.

{"structure-smiles": "O=C(O)[C@H]1O[C@H](OP(=O)(O)OP(=O)(O)OP(=O)(O)OP(=O)(O)OC[C@H]2O[C@@H](n3ccc(=O)[nH]c3=O)[C@H](O)[C@@H]2O)[C@H](O)[C@@H](O)[C@@H]1O", "pEC50": 5.78}
{"structure-smiles": "O=c1[nH]/c(=N\\OCc2ccccc2)ccn1[C@@H]1O[C@H](COP(=O)(O)OP(=O)(O)OP(=O)(O)OP(=O)(O)O[C@H]2O[C@H](CO)[C@@H](O)[C@H](F)[C@H]2O)[C@@H](O)[C@H]1O", "pEC50": 5.12}
{"structure-smiles": "O=c1ccn([C@@H]2O[C@H](COP(=O)(O)OP(=O)(O)OP(=O)(O)OP(=O)(O)O[C@H]3O[C@H](CO)[C@@H](F)[C@H](O)[C@H]3O)[C@@H](O)[C@H]2O)c(=O)[nH]1", "pEC50": 5.79}
{"structure-smiles": "CC(=O)N[C@H]1[C@@H](OP(=O)(O)OP(=O)(O)OP(=O)(O)OP(=O)(O)OC[C@H]2O[C@@H](n3ccc(=O)[nH]c3=O)[C@H](O)[C@@H]2O)O[C@H](CO)[C@@H](O)[C@@H]1O", "pEC50": 5.26}
{"structure-smiles": "CONc1ccn([C@@H]2O[C@H](COP(=O)(O)OP(=O)(O)OP(=O)(O)OP(=O)(O)O[C@H]3O[C@H](CO)[C@@H](O)[C@H](F)[C@H]3O)[C@@H](O)[C@H]2O)c(=O)n1", "pEC50": 5.84}
{"structure-smiles": "O=c1ccn([C@@H]2O[C@H](COP(=O)(O)OP(=O)(O)OP(=O)(O)OP(=O)(O)Oc3cccc(Cl)c3)[C@@H](O)[C@H]2O)c(=O)[nH]1", "pEC50": 5.43}
{"structure-smiles": "O=c1ccn([C@@H]2O[C@H](COP(=O)(O)OP(=O)(O)OP(=O)(O)OP(=O)(O)O[C@H]3O[C@H](CO)[C@@H](O)[C@H](F)[C@H]3O)[C@@H](O)[C@H]2O)c(=O)[nH]1", "pEC50": 6.02}
{"structure-smiles": "O=c1ccn([C@@H]2O[C@H](COP(=O)(O)OP(=O)(O)OP(=O)(O)OP(=O)(O)O[C@H]3OC[C@@H](O)[C@H](O)[C@H]3O)[C@@H](O)[C@H]2O)c(=O)[nH]1", "pEC50": 5.31}
{"structure-smiles": "O=c1ccn([C@@H]2O[C@H](COP(=O)(O)OP(=O)(O)OP(=O)(O)OP(=O)(O)O[C@H]3O[C@H](CO)[C@@H](O)[C@@H](O)[C@H]3O)[C@@H](O)[C@H]2O)c(=O)[nH]1", "pEC50": 5.93}
{"structure-smiles": "O=c1nc(NOCCCc2ccccc2)ccn1[C@@H]1O[C@H](COP(=O)(O)OP(=O)(O)OP(=O)(O)O)[C@@H](O)[C@H]1O", "pEC50": 6.13}
{"structure-smiles": "O=c1ccn([C@@H]2O[C@H](COP(=O)(O)OP(=O)(O)OP(=O)(O)OP(=O)(O)O[C@H]3O[C@H](CO)[C@@H](O)[C@H](O)[C@@H]3O)[C@@H](O)[C@H]2O)c(=O)[nH]1", "pEC50": 4.92}

The origin of these recorded values is ChEMBL document CHEMBL1782004.
